# System: Matricaria
# method-summary: Pre-emergence test/greenhouse
# Assay type: in vivo
# conditions-used: Table B, 60 g/ha, after three weeks
Items are presented alongside their recorded degree of damage, Matricaria.
Write the answer as a number in %, unit excluded.

Please review the entries below; each comes with its answer.
1. Cn1c(C(F)(F)F)cc(=O)n(-c2cc(NS(C)(=O)=O)c(C(N)=S)cc2F)c1=S :: 100
2. C#CC(C)Oc1cc(-n2nc(C(F)F)n(C)c2=S)c(F)cc1C(N)=S (stereo not shown) :: 100
3. CCn1c(C(F)(F)F)nn(-c2cc(N(C)S(=O)(=O)CC)c(C(N)=S)cc2F)c1=O :: 90
4. Cn1c(C(F)(F)F)nn(-c2cc(NS(C)(=O)=O)c(C(N)=S)cc2F)c1=S :: 100
5. CCS(=O)(=O)Nc1cc(-n2nc(C(F)F)n(C)c2=S)c(F)cc1C(N)=S :: 100

degree of damage, Matricaria recorded for this compound, CCS(=O)(=O)Nc1cc(N2C(=O)C3=C(CCCC3)C2=O)c(F)cc1C(N)=S , is 100
